tested.target: UniProt:Q14973
assay.explanation: Screening taurocholate uptake assay (96-well, [14C]taurocholate, 10 µM drug)
assay.context: screen, 10 µM drug, taurocholate uptake
Structures can show the parent of a compound that is named as a salt.
The label is YES for B-score functional assay below -0.2 and NO for B-score functional assay equal to or exceeding -0.2.

Record excerpt, results attached:
- molecule: "CN(C)CC/C=C1\\c2ccccc2CSc2ccccc21 [Dosulepin hydrochloride]"
  class.label: "YES"
- molecule: "Nc1ccc(S(=O)(=O)Nc2ccccn2)cc1 [Sulfapyridine]"
  class.label: "NO"
- molecule: "C[C@]12CCC(=O)C=C1CC[C@@H]1[C@@H]2C(=O)C[C@@]2(C)[C@H]1CC[C@]2(O)C(=O)CO [Cortisone]"
  class.label: "YES"
- molecule: "NCCCC(O)(P(=O)(O)O)P(=O)(O)O [Alendronate sodium]"
  class.label: "NO"
- molecule: "Cn1c(=O)c2[nH]cnc2n(C)c1=O [Theophylline monohydrate]"
  class.label: "YES"

Below -0.2 on B-score functional assay? Entry C=CCOc1ccccc1OCC(O)CNC(C)C (centres unmarked) [Oxprenolol hydrochloride]
NO

Likewise for C[C@]12C=CC(=O)C=C1CC[C@@H]1[C@@H]2C(=O)C[C@@]2(C)[C@H]1CC[C@]2(O)C(=O)CO [Prednisone] ?
YES

And what about the molecule CCC1=C(C)CN(C(=O)NCCc2ccc(S(=O)(=O)NC(=O)N[C@H]3CC[C@H](C)CC3)cc2)C1=O [Glimepiride] ?
YES

* * *

tested.target: human NTCP (Homo sapiens, UniProt Q14973)
assay.explanation: Screening taurocholate uptake assay (96-well, [14C]taurocholate, 10 µM drug)
assay.context: combined ranking of functional and binding screening assays
measured.parameter: Ranking score
// return just the number, without any unit appended

Sample records with Ranking score:
- molecule: "CN(C)CCOc1ccc(/C(=C(/CCCl)c2ccccc2)c2ccccc2)cc1"
  reported.measurement: 537.181
- molecule: "COc1cc([C@@H]2c3cc4c(cc3[C@H](O)[C@H]3COC(=O)[C@H]23)OCO4)cc(OC)c1OC"
  reported.measurement: 1193.91
- molecule: "CC[N+](CC)(CC)CCOc1cccc(OCC[N+](CC)(CC)CC)c1OCC[N+](CC)(CC)CC [Gallamine triethiodide]"
  reported.measurement: 565.721
- molecule: "OC(c1ccccc1)(c1ccccc1)C1CCNCC1"
  reported.measurement: 525.026
- molecule: "CC(C(=O)O)c1ccc(-c2ccccc2)c(F)c1 (stereo not shown)"
  reported.measurement: 612.059

Requested read-out Ranking score, target or system human NTCP (Homo sapiens, UniProt Q14973), entry OC(Cn1cncn1)(Cn1cncn1)c1ccc(F)cc1F
553.146

Now try C[C@@](Cc1ccc(O)c(O)c1)(NN)C(=O)O .
597.675

Request: NC(=O)N/N=C/c1ccc([N+](=O)[O-])o1
535.985

* * *

assay.explanation: WST-1 cytotoxicity, wildtype U2OS cells
assay.context: human, wildtype U2OS cells
measured.parameter: viability at 2 h, 10 µM (%)
Respond with the bare value in %.

As a guide, the following entries are already answered.
- compound: "O=C(O)c1ccccc1Nc1cccc(C(F)(F)F)c1 [Flufenamic Acid, Flufenamic acid]"
  unit.name: "%"
  viability at 2 h, 10 µM: 108
- compound: "CN(CCOc1ccc(CC2SC(=O)NC2=O)cc1)c1ccccn1 (stereo not shown) [Rosiglitazone]"
  unit.name: "%"
  viability at 2 h, 10 µM: 107
- compound: "CC(C)c1ccc2oc3nc(N)c(C(=O)O)cc3c(=O)c2c1 [Amlexanox]"
  unit.name: "%"
  viability at 2 h, 10 µM: 94.8

Quick one: viability at 2 h, 10 µM of Cc1cc(-n2c(=O)[nH]c(=O)n(C)c2=O)ccc1Oc1ccc(SC(F)(F)F)cc1 [Toltrazuril] ?
109

* * *

Let's look at some compounds and their measured Ranking score.
tested.target: UniProt Q14973
Sequence (Q14973 1-349): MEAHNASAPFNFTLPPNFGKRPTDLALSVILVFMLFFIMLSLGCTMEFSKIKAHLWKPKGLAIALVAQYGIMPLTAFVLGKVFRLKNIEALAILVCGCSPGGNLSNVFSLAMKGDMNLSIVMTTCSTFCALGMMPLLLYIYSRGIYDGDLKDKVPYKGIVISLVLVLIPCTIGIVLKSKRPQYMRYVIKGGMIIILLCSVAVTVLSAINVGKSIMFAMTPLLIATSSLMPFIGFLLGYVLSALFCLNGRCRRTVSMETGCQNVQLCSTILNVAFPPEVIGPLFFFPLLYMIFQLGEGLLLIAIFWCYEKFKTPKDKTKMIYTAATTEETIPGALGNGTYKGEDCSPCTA
assay.explanation: Screening taurocholate uptake assay (96-well, [14C]taurocholate, 10 µM drug)
assay.context: combined ranking of functional and binding screening assays
Please state the value as a number alone, without comment.

- compound: "CCc1cccc(CC)c1NC(=O)CN(CC(=O)O)CC(=O)O"
  tested.target: "UniProt Q14973"
  Ranking score: 532.717
- compound: "O=C1c2cccc(O)c2C(=O)c2c(O)cccc21 [1,8-Dihydroxyanthraquinone]"
  tested.target: "UniProt Q14973"
  Ranking score: 1173.42
- compound: "O=C1c2ccccc2C(=O)C1c1ccccc1"
  tested.target: "UniProt Q14973"
  Ranking score: 569.166
- compound: "Nc1ccc(S(=O)(=O)NC(=O)c2ccccc2)cc1 [Sulfabenzamide]"
  tested.target: "UniProt Q14973"
  Ranking score: 563.848

Now let's try a different one.
Param item = COc1ccccc1OCC(O)CN1CCN(CC(=O)Nc2c(C)cccc2C)CC1 (centres unmarked) ; retrieve measured Ranking score.
603.017

* * *

tested.target: human NTCP (Homo sapiens, UniProt Q14973)
assay.explanation: Screening taurocholate uptake assay (96-well, [14C]taurocholate, 10 µM drug)
assay.context: ranking score beside the functional and binding assay B-scores of the screen
Where a name gives a salt, the structure may show the parent alone.
Ranking score for assorted compounds
Keep the answer to the number alone.

- compound: "CCCCC[C@H](O)/C=C/[C@H]1[C@H](O)CC(=O)[C@@H]1CCCCCCC(=O)O [Alprostadil]"
  tested.target: "human NTCP (Homo sapiens, UniProt Q14973)"
  Ranking score: 841.475
- compound: "C#C[C@]1(O)CC[C@H]2[C@@H]3CCC4=C(CCC(=O)C4)[C@H]3CC[C@@]21C [Norethynodrel]"
  tested.target: "human NTCP (Homo sapiens, UniProt Q14973)"
  Ranking score: 749.492
- compound: "CN(C)c1ccc(O)c2c1C[C@H]1C[C@H]3[C@H](N(C)C)C(O)=C(C(N)=O)C(=O)[C@@]3(O)C(O)=C1C2=O [Minocycline hydrochloride]"
  tested.target: "human NTCP (Homo sapiens, UniProt Q14973)"
  Ranking score: 838.821
- compound: "CCN1CCN(c2cc3c(cc2F)c(=O)c(C(=O)O)cn3C2CC2)CC1 [Enrofloxacin]"
  tested.target: "human NTCP (Homo sapiens, UniProt Q14973)"
  Ranking score: 706.109
- compound: "O=c1[nH]c(=O)n([C@H]2C[C@H](O)[C@@H](CO)O2)cc1F [Floxuridine]"
  tested.target: "human NTCP (Homo sapiens, UniProt Q14973)"
  Ranking score: 772.114
- compound: "CN(C)CCCN1c2ccccc2CCc2ccc(Cl)cc21 [Clomipramine hydrochloride]"
  tested.target: "human NTCP (Homo sapiens, UniProt Q14973)"
  Ranking score: 759.266

Next compound, Ranking score to be filled in.
Ranking score lookup needed for COC(=O)[C@H]1[C@H]2C[C@@H]3c4[nH]c5cc(OC)ccc5c4CCN3C[C@H]2C[C@@H](OC(=O)c2cc(OC)c(OC)c(OC)c2)[C@@H]1OC [Reserpine] , thanks.
842.122

* * *

tested.target: human NTCP (Homo sapiens)
Sequence (Q14973 1-349): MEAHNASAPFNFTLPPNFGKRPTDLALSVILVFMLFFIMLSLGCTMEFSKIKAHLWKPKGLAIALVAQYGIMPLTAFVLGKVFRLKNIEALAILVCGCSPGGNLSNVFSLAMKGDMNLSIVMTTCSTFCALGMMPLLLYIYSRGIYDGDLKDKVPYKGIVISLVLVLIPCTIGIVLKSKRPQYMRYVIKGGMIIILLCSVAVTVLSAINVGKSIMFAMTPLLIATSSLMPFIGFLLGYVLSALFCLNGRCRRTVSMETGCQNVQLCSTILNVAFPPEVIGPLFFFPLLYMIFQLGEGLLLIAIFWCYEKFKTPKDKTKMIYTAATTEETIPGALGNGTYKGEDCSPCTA
assay.explanation: Screening fluorescent competitive Myrcludex B-FITC binding assay (96-well, 10 µM drug)
assay.context: screen, 10 µM drug, Myrcludex B-FITC binding
Counter-ions that a name gives are not always drawn.
measured.parameter: B-score binding assay
Form rule: numeric answer, no unit written next to it.

Sample records with B-score binding assay:
- molecule: "CN1CCC(=C2c3ccccc3CC(=O)c3sccc32)CC1 [Ketotifen fumarate]"
  measured.parameter: "B-score binding assay"
  reported.measurement: -0.838
- molecule: "C=CC[N@@+]12CC[C@@]34c5ccccc5N5/C=C6/[C@H]7C[C@H]8[C@@]9(CC[N@@+]8(CC=C)C/C7=C/CO)c7ccccc7N(/C=C(/[C@@H](C[C@@H]31)/C(=C\\CO)C2)[C@H]54)[C@@H]69.[Cl-].[Cl-] [Alcuronium chloride]"
  measured.parameter: "B-score binding assay"
  reported.measurement: -1.767
- molecule: "CN(C)CC/C=C1\\c2ccccc2CSc2ccccc21 [Dosulepin hydrochloride]"
  measured.parameter: "B-score binding assay"
  reported.measurement: 0.311

As a next step, examine the molecule that follows.
Can you look up the measured B-score binding assay of O=c1[nH]cc(F)c(=O)[nH]1 for me?
-1.388
